From: patent US10131652B2

# Tested on: ragweed (common ragweed, Ambrosia elatior)
# assay protocol: Test B pre-/postemergence plant response
# Assay type: in vivo
# recorded conditions: Preemergence, 1000 g ai/ha; 0 to 100 scale (0 no effect, 100 complete control)
# Excerpt: […]
Below: a set of entries, each annotated with reported Plant response rating, Ragweed.
# print the numeric value only

Answered examples (4):
Fc1cccc(Oc2ncc(Cl)cn2)c1-c1cc(C(F)F)on1 100
FCc1cc(-c2c(Br)cccc2Oc2ncc(Cl)cn2)no1 90
Clc1cnc(Oc2ccccc2-c2ncns2)nc1 0
Fc1cnc(Oc2ccccc2-c2cc(Cl)sn2)nc1 80

Quick note, Plant response rating, Ragweed for Cc1cc(-c2ccccc2Oc2ncc(Cl)cn2)sn1 landed at 0
